Reference source for all entries: PubChem BioAssay AID1508600

Assay: Components of the Cytosolic LPS Sensing Pathway: Gene Identification via Genome-wide siRNA Screen;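 note: robust z of the log signal after scaling to non-targeting control siRNA wells of the plate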
Settings: RAW264.7 macrophages, IL-1a HTRF, actives lie on both sides, screened at 100 nM (by protocol), cells primed 5 h with Pam3CSK4 first
Screen size: about 53,000 sequences; about 3,700 (7%) were called active. Many of the other results were omitted from the sample, so actives are more common in it than they were.
parameter: z-score
Form: value (number only, do not type unit).

Some solved cases for reference:
1) GGACUUAUGGCAUUAGAAUTT against Nup88 | -1.17
2) GGGCCACACAGAAAUGGUUTT against Ank1 | 0.994
3) GGCACAAUUUCUUUGAAUCTT against Ophn1 | 0.885

The recorded z-score for entry GACAUUUGUAUGCAGUCAUTT against Vmn1r193 equals -2.65

Consider GUCUACAUCAACAUGCCUGTT against Hcst . Its measured z-score is 0.729

The value of z-score measured for the sequence GGGAAGAACUGUGAUUAUUTT against Hspd1 turned out to be 0.625

---

Assay: Components of the Cytosolic LPS Sensing Pathway: Gene Identification via Genome-wide siRNA Screen;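 note: robust z of the log signal after scaling to non-targeting control siRNA wells of the plate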
Details: RAW264.7 macrophages, IL-1a HTRF, actives lie on both sides, screened at 100 nM (by protocol), cells primed 5 h with Pam3CSK4 first
Method: Non-canonical inflammasome activation by cytosolic LPS is a critical component of the host response to Gram-negative bacterial infection, however we lack a comprehensive understanding of the cellular processes that control this pathway. […] Lipofectamine RNAiMAX Transfection Reagent ([…]; Invitrogen) was added in […] serum-free, antibiotic-free media to plate wells using a Thermo Scientific Matrix WellMate and Microplate Stacker. […] The plates were read on an EnVision plate reader (PerkinElmer). […]
Screen size: about 53,000 sequences; about 3,700 (7%) were called active. This is one part of a sample in which actives are shown more often than they occur.
Criterion: z-score meeting or surpassing 0.7. Met: condition met. Not met: condition not met.

Example cases with answers are listed next.
1. CCAAAACAUUAACCUGAAGTT against Pla2g6 | condition not met
2. GCUGUGCCCUAAAGACUGGTT against Clec2m | condition met
3. GGCAACAUCACUGAGUAUCTT against Glg1 | condition not met
4. GGACAGCUUGUAAAUUGCCTT against Mup21 | condition not met

Next up:
Given the entry GGCAACUGCCUUUACCAUATT against Tceanc2 , answer whether its z-score meets or surpasses 0.7.
condition met

---

Test: Components of the Cytosolic LPS Sensing Pathway: Gene Identification via Genome-wide siRNA Screen;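 note: robust z of the log signal after scaling to non-targeting control siRNA wells of the plate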
Settings: RAW264.7 macrophages, IL-1a HTRF, actives lie on both sides, screened at 100 nM (by protocol), cells primed 5 h with Pam3CSK4 first
Description: Non-canonical inflammasome activation by cytosolic LPS is a critical component of the host response to Gram-negative bacterial infection, however we lack a comprehensive understanding of the cellular processes that control this pathway. […] Lipofectamine RNAiMAX Transfection Reagent ([…]; Invitrogen) was added in […] serum-free, antibiotic-free media to plate wells using a Thermo Scientific Matrix WellMate and Microplate Stacker. […] The plates were read on an EnVision plate reader (PerkinElmer). […]
The campaign covered roughly 53,000 sequences. About 3,700 (7%) were called active. This is one part of a sample in which actives are shown more often than they occur.
parameter: z-score
Give a plain numeric answer without units written out.

1) GGGACUUCAGACAGUUAUCTT against Ess2 | 1.69

// recorded z-score for GAGCCAUAUACCUCGUCCUTT against Mier2 : -0.531
